# System Under Test: DYRK3 (human) (UniProt O43781)
# Sequence (O43781 whole entry, looked up): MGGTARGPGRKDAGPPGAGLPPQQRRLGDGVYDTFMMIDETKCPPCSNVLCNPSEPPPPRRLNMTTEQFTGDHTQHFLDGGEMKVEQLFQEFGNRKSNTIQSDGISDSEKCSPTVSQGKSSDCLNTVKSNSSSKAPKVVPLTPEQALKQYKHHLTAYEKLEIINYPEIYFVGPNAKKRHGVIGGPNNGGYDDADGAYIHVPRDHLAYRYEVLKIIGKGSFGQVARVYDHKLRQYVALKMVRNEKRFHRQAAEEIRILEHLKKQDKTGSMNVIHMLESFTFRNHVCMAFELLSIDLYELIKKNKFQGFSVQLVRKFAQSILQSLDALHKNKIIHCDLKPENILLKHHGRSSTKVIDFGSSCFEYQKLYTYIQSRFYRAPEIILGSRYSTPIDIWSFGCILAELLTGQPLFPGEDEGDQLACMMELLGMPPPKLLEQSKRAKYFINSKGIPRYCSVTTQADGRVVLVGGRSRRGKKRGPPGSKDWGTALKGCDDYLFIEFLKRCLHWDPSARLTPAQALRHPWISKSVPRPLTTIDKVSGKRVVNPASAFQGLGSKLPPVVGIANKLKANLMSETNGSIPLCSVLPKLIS
# Protocol Text: radiometric filter-binding kinase assay, Kinase HotSpot
# Condition Details: compound 0.5 µM; ATP 10 µM
Measurement Type: residual activity (%)
Please respond with the number in % and leave the unit unwritten.

Sample answers from the record:
In [3]: df
Out[3]:
                      smiles_representation               system_under_test  endpoint_result
0  FC(F)(F)c1ccc(/C=C/c2nc(COc3ccc(CCCCn4ccnn4)cc3)co2)cc1  DYRK3 (human) (UniProt O43781)              109
1  O=c1c2ccccc2[nH]c(=S)n1CCN1CCC(=C(c2ccc(F)cc2)c2ccc(F)cc2)CC1  DYRK3 (human) (UniProt O43781)              101
2          COc1cccc(-c2cc(=O)c3ccccc3o2)c1N  DYRK3 (human) (UniProt O43781)             90.3
3  Cn1cc(/C=C2\C(=O)Nc3ccc(S(N)(=O)=O)cc32)c2ccccc21  DYRK3 (human) (UniProt O43781)             89.7

Which measured residual activity belongs to N#Cc1c(NC(=O)c2cccc3ccccc23)sc2c1CCCC2 , tested on DYRK3 (human) (UniProt O43781)? 128
